Tested on: Trypanosoma cruzi
Experiment: Trypanosoma cruzi phosphomannomutase and mannose-1-phosphate guanylyltransferase assay
Assay type: functional
Parameters: scale not given: direction of the effect not stated beside the values
Details: 10 µM
Percent Effect reference
State the result as a value with its unit after it.

// solved cases for Percent Effect follow
Cc1cc(N2CCN(C(=O)c3cc(Cl)c[nH]3)CC2)nc(N)n1	5.36%
CCN(CC)C(=O)c1ccn(COc2cc(C)cc(C)c2)n1	-0.982%
CC(C1CC1)N(C(=O)NCCCn1nc2ccccn2c1=O)C1CC1 (stereo unspecified)	3.13%

## Input Fill blank: measured Percent Effect of the compound O=C(NCCCNC(=O)c1cccc(O)c1)Nc1ccc(F)cc1F is ____.
## Output 2.24%

## Input Record: CCn1c(Cn2cncn2)nnc1C1CCN(C(=O)CCSC)CC1
## Output 3.23%

## Input Record: Cc1ccc(CNC(=O)Nc2cc(C(F)(F)F)c[nH]c2=O)cn1
## Output 0.0972%

* * *

Biological target: Proteasome subunit beta (Trypanosoma cruzi) (UniProt O96673)
Sequence (O96673 as listed by the source): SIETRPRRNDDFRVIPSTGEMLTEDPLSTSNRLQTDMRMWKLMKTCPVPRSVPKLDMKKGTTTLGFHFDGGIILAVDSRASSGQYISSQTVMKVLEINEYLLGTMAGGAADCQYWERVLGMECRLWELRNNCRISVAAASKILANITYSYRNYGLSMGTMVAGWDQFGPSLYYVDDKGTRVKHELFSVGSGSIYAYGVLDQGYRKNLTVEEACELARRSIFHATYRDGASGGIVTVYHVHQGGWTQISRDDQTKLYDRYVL
Assay: Trypanosoma cruzi proteasome chymotrypsin-like activity (TcProtChymo) assay. Further: in the data most compounds retested in dose-response had high values.
Type: functional
Set-up: scale not given: direction of the effect not stated beside the values
Conditions: 9.37 µM
Experimental readout: Percent Effect (%)
Report only the number, with the unit % understood.

// solved cases for Percent Effect follow
O=C(CN1CCCCC1Cn1cncn1)NCCc1ccc(F)cc1 (stereo unspecified)	8.27
Cc1ncsc1C(=O)NCCn1nc(C2CCNC2)c2cccnc21 (stereo unspecified)	3.26
CNC(=O)c1cccc(NC(=O)Cn2nc(-c3cccs3)oc2=O)c1	4.13
Cc1nc(CN2C[C@@H]3CN(C(=O)C4CC4)C[C@@H]3C2=O)cs1	14.9
CC(C)(C)C(=O)NCCC(=O)NS(=O)(=O)c1ccc2c(c1)OCCO2	7.1

## Input Fill blank: measured Percent Effect of the compound CC(O)CN1CCN(C(=O)c2cc3ccccc3[nH]c2=O)CC1 (stereo unspecified) is ____.
## Output 13.1

## Input Record: CC(C)N(C)Cc1nnc2n1CCN(Cc1ccncc1)CC2
## Output 2.73

## Input Record: CN(C)c1nccc(N2CCO[C@H]3CN(CC4CCOCC4)C[C@H]32)n1
## Output 10.5

## Input Record: COc1ccc(CCC(=O)NC2CCC(O)CC2)cc1OC (stereo unspecified)
## Output 2.12

## Input Record: CCOCCOC(C)C(=O)NCc1cn2cc(Br)ccc2n1 (stereo unspecified)
## Output 9.68

## Input Record: COc1ccc(C(=O)N2CCC(Nc3ccc(C)nn3)CC2)c(F)c1
## Output 12.7

* * *

Target: Arginase-2, mitochondrial (Homo sapiens) (UniProt P78540)
Sequence (P78540 whole entry): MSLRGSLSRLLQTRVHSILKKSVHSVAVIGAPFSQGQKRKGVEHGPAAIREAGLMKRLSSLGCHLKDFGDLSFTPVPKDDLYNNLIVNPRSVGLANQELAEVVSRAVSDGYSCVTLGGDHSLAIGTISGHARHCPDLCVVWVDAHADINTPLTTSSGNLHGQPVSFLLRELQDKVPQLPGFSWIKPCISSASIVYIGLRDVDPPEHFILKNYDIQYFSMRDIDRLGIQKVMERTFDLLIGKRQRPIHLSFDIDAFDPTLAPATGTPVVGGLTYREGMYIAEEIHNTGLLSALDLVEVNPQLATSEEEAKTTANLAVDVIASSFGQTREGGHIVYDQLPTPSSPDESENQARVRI
Test: in vitro enzyme assay to detect the production of urea directly proportional to the activity of Arginase II; further: in the data most compounds retested in dose-response had high values
Type: functional
Design: scale not given: direction of the effect not stated beside the values
Conditions: 33.3 µM
Experimental readout: Percent Effect (%)
Report only the number, with the unit % understood.

Cc1nn2c(N3CCC(O)C3)cc(-c3ccccc3)nc2c1C (stereo unspecified)	-1.6

## Input Fill blank: measured Percent Effect of the molecule Cc1ccc2c(c1)c(CNC(=O)C1CC(=O)N(C3CCCC3)C1)nn2C (stereo unspecified) is ____.
## Output -1.43

## Input Record: c1coc(CN2Cc3nccn3CC(Cn3cncn3)C2)c1 (stereo unspecified)
## Output -4.39

## Input Record: NC(=O)c1ccc2c(c1)nc1n2CCN(Cc2ccco2)C1
## Output -2.37

## Input Record: Cc1cn(-c2ccccc2)nc1NS(=O)(=O)c1cccc(C(=O)O)c1
## Output 5

## Input Record: CC(C)c1nnc2n1CCN(Cc1csc(CC(=O)N(C)C)n1)C2
## Output -4.6

* * *

Target: Ubiquitin-activating enzyme e1, putative (Leishmania donovani (strain BPK282A1))
Test: Leishmania donovani Ubiquitin Activating Enzyme (LdE1)
Format: functional
Design: scale not given: direction of the effect not stated beside the values
Settings: 30 µM
Entries with a potency or affinity are not part of this list.
Experimental readout: Percent Effect (%)
Report only the number, with the unit % understood.

// solved cases for Percent Effect follow
COc1ccccc1OCC(=O)Nc1ncccc1OC(F)F	1.39
O=C(CCNc1ncccn1)NCCOc1ccc2c(c1)CCC2	15.8

## Input Fill blank: measured Percent Effect of the molecule Cc1cnn(CC2CCCN2Cc2nccn2C)c1 (centres undefined) is ____.
## Output -16.5

## Input Record: Cc1ccc(C2COCCN2C(=O)c2ccc(CN(C)C)cc2)o1 (centres undefined)
## Output -5.33

* * *

Molecular target: AMP-activated protein kinase, AMPK (Homo sapiens) (UniProt P54646+O43741+P54619+Q9UGJ0+Q9Y478+Q13131+Q9UGI9)
Experiment: AMP-dependent Kinase enzyme assay. An in vitro enzyme assay that detects ADP turnover that is directly proportional to AMPK activity. This uses naive AMPK that is activated during the assay with MK-8722
Assay type: functional
Parameters: scale not given: direction of the effect not stated beside the values
Settings: 30 µM
Experimental readout: Percent Effect (%)
Report only the number, with the unit % understood.

O=C(N[C@@H]1CN(Cc2ccc3c(c2)OCO3)[C@@H]2CCCO[C@@H]21)C1CC1	-0.94
Cc1ccc(CC(=O)NC(C)C(=O)N2CCS(=O)(=O)CC2)cc1 (stereo unspecified)	-3.26
CS(=O)(=O)N1CC[C@]2(C[C@@H](OCC3CCC3)CO2)C1	-8.34

## Input Fill blank: measured Percent Effect of the compound CS(=O)(=O)NC1CCc2c(ccc(=O)n2CC2CC2)C1 (stereo unspecified) is ____.
## Output 7.1

## Input Record: Cc1nc(C)n(CC2CN(c3ccc(C#N)cn3)CCO2)n1 (stereo unspecified)
## Output -4.42

## Input Record: COCCn1nc(C(=O)N2CCCC2c2cccc(F)c2)ccc1=O (stereo unspecified)
## Output -0.552

* * *

Percent Effect reference
Biological target: Sialic acid-binding Ig-like lectin 9 (Homo sapiens) (UniProt Q9Y336)
Sequence (Q9Y336 whole entry): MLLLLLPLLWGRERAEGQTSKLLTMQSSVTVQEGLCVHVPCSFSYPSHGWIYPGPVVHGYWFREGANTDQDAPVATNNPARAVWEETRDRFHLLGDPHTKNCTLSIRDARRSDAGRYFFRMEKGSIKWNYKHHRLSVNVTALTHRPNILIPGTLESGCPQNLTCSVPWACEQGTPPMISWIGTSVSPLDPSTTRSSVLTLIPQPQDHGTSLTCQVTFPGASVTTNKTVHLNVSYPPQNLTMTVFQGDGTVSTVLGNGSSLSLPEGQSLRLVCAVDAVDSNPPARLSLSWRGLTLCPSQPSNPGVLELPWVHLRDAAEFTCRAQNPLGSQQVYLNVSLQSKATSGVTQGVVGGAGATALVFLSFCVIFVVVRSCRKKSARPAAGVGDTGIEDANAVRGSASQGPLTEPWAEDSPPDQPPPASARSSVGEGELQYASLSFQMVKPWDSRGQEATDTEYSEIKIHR
Experiment: Hs-Siglec9 ALPHAscreen SOP 20170721
Parameters: scale not given: direction of the effect not stated beside the values
Details: 10 µM
Report only the number, with the unit % understood.

// solved cases for Percent Effect follow
Cc1ccccc1-c1cc(NC(=O)CC(C)C)n(CCO)n1	0.669
CC(C)N1CCC(N2CCN(C3CCC3)CC2CCO)CC1 (stereo not drawn)	12
Cc1cc(C(=O)N2CCC(c3nccn3Cc3ccncc3)CC2)no1	-7.08
CCn1ncc2c1CCCC2NCc1cc(Cl)c(OC)c(OC)c1 (stereo not drawn)	14.8
CCCc1n[nH]c(C2CN(CCNS(=O)(=O)CC)CCO2)n1 (stereo not drawn)	-2.28
CC(NC(=O)c1nc(=O)[nH][nH]1)c1ccc(OCC2CC2)c(F)c1 (stereo not drawn)	-1.85
COCCO[C@@H]1CCN(Cc2csc(C)n2)[C@H]1Cc1ccccc1	-7.92
Cc1ccc(C(=O)N2CCn3cc(CN4CCCCC4)nc3C2)o1	-11.1

## Input Fill blank: measured Percent Effect of the compound CCCN1CCN(C(=O)c2scnc2C)CC1 is ____.
## Output 9.57

## Input Record: O=C(Cn1ccnc1)N1C[C@@H]2CC[C@H](Oc3ccccc3)[C@@H]2C1
## Output -4.28

## Input Record: CCN1CCCC1CN(CCN(C)C)S(=O)(=O)c1cccc(C#N)c1 (stereo not drawn)
## Output 5.43

## Input Record: CC(=O)N1CCC(CN2CCN(Cc3nccn3C)C(C)C2)CC1 (stereo not drawn)
## Output -8.56

## Input Record: CCNC(=O)N1CCCCC1CCO (stereo not drawn)
## Output 17.1

## Input Record: CCc1nc(CN(C)CC2CCN(CCO)CC2)no1
## Output 9.52

## Input Record: CC(=O)Nc1nc(C(=O)N2CCCC2c2noc(C)n2)cs1 (stereo not drawn)
## Output -6.87

## Input Record: CC(=O)c1cccc(OCCCC(=O)N(C)CCc2ccncc2)c1
## Output 2.37

## Input Record: Cc1cc(-c2cnn(CCNC(=O)c3cccnc3)c2C2CC2)on1
## Output 2.6

## Input Record: CCN1CCC(NC(=O)CN2CCCCC2Cn2cc(C)cn2)CC1 (stereo not drawn)
## Output -0.101

## Input Record: CN(C)C[C@H]1OC[C@@H]2CCN(C(=O)c3cccn3C)C[C@@H]21
## Output 19.3

## Input Record: O=C(c1cccnc1)N1CCC2(CC1)CCN(c1ccsc1)C2=O
## Output -7.82

## Input Record: CCc1noc(CN2CCCN(C(N)=O)CC2)n1
## Output 11.3

## Input Record: Oc1cc(CCC2CCCCN2)cc(-c2ccncc2)c1 (stereo not drawn)
## Output 0.305

## Input Record: CC(CN1CCCC1)C(=O)N1CCC(c2nccn2CC2CC2)CC1 (stereo not drawn)
## Output 27.7

## Input Record: NC(=O)C1(Cc2ccccc2-c2ccccc2)CCCN(CC2CC2)C1 (stereo not drawn)
## Output 1.63

## Input Record: O=C(Cc1ccc(O)c(Cl)c1)N1CCCCC1CCn1cccn1 (stereo not drawn)
## Output 26.9

## Input Record: CC(=O)N1[C@H](Cn2cncn2)C[C@@H]2CN(c3ccc(C)nn3)CC[C@@H]21
## Output 0.483
